This collection of values is drawn from patent US20020058247A1.

# experimentalTarget: T1, non-structural 3 protein (NS3) of the hepatitis C virus (HCV) (hepatitis C virus)
# T1 construct: Control antigen; also called HCV NS3
# assayName: EIA, support-bound peptide, HCV NS3 control
Give measured OD at 405 nm for each item. Keep answers brief.
Give bare numbers, in OD.

Please review the following examples before continuing.
> print(dat)
                                     binder  measuredparameter  readoutunit  obsvalue
1  TFGGGTKLEIKRADAAPAV (also called Peptide # 22) [TFGGGTKLEIKRADAAPAV (SEQ. ID. No. 25)]       OD at 405 nm           OD     0.024
2  QLNSLTSEDSAVYYCARGKG (also called Peptide # 32) [QLNSLTSEDSAVYYCARGKG (SEQ. ID. No. 35)]       OD at 405 nm           OD     0.035
3  GVPARFSGSGSGTDFTLNIH [GVPARFSGSGSGTDFTLNIH (SEQ. ID. No. 21)]       OD at 405 nm           OD     0.027
4  FPGEGSTEYNEKFKGRATLS (also called Peptide # 6) [FPGEGSTEYNEKFKGRATLS (SEQ. ID. No. 9)]       OD at 405 nm           OD     0.109
5  PVEEEDTATYYCQHSWEIPY (also called Peptide # 20) [PVEEEDTATYYCQHSWEIPY (SEQ. ID. No. 23)]       OD at 405 nm           OD     0.124
6  DYYRRYFDLWGQGTTVTVS (also called Peptide # 11) [DYYRRYFDLWGQGTTVTVS (SEQ. ID. No. 14)]       OD at 405 nm           OD     0.022

Next binder, please.
Reported OD at 405 nm, binder TGFAYWGQGTLVTVSAAKTT (also called Peptide # 34) [TGFAYWGQGTLVTVSAAKTT (SEQ. ID. No. 37)] : ____
0.035
